Attribute: IC50
target_desc: recombinant human AChE (Homo sapiens)
Sequence (P22303 32-614): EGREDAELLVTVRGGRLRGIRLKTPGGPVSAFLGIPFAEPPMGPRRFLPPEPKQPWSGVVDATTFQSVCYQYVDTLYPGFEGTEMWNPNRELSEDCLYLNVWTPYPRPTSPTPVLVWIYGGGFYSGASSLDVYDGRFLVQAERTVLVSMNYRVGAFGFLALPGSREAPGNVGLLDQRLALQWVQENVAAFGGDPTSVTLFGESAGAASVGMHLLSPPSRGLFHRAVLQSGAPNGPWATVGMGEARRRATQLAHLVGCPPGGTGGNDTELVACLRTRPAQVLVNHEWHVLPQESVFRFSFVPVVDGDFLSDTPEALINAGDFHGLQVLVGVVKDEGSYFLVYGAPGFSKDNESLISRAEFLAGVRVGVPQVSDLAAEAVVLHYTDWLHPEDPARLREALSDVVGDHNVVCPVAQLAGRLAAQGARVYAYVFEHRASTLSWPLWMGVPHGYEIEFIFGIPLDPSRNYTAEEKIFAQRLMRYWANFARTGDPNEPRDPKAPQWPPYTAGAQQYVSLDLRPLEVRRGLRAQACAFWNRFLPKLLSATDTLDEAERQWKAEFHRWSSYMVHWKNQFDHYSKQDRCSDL
measurement_protocol: biochemical
particulars: pH 7.5, tested at 125 to 1000 µM, read-out: AChE inhibitory activity IC50

Some entries whose results are on file:
COc1cc(/C=C/C(=O)CC(C)=O)cc(OC)c1OC [No.5, 5-methoxyhispolon dimethyl ether] :: > 1000 µM
COc1cc(/C=C/C(=O)CC(C)=O)cc(O)c1O [No.3, 5-methoxyhispolon] :: > 1000 µM
COc1c(O)ccc(/C=C/C(=O)CC(C)=O)c1O [No.7, 2-hydroxy hispolon monomethyl ether] :: > 1000 µM
CC(=O)CC(=O)/C=C/c1ccc(O)c(O)c1 [No.1, Hispolon] :: 828 µM
CC(=O)CC(=O)/C=C/c1cc(O)c(O)c(O)c1 [No.2, 5-hydroxy hispolon] :: > 1000 µM

Lab note: CC(=O)CC(=O)/C=C/c1ccc(O)c(O)c1O [No.6, 2-hydroxy hispolon] gave IC50 of 286 µM

Lab note: COc1cc(/C=C/C(=O)CC(C)=O)cc(OC)c1O [No.4, 5-methoxyhispolon monomethyl ether] gave IC50 of > 1000 µM

---

target_desc: Aβ1-42 peptide (Homo sapiens, UniProt P05067)
Construct: The preparation of Aβ1–42 peptide stock solution was following the previous report
Sequence (P05067 672-713): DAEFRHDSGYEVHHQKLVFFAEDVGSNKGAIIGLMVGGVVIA
measurement_protocol: Anti-Aβ1-42 peptide aggregation, thioflavin T binding assay
particulars: 10 µM Aβ1-42, 10 µM ThT, 37 °C, 24 h; read-out: IC50 of anti-Aβ1-42 peptide aggregations
readout_type: pIC50
Note: pIC50 values are expressed as the negative base-10 logarithm of concentration in M.

Illustrative cases are given below, each with its answer.
CC(=O)CC(=O)/C=C/c1ccc(O)c(O)c1O [No.6, 2-hydroxy hispolon] :: 5.99
COc1cc(/C=C/C(=O)CC(C)=O)cc(OC)c1O :: 4.91

Now take the following compound into account.
// sample "CC(=O)CC(=O)/C=C/c1ccc(O)c(O)c1" , its pIC50 was 5.85
